- Tested on: DOPAC levels (3,4-dihydroxyphenylacetic acid) in the rat striatum
- assay remarks: In vivo neurochemistry: tissue content of DOPAC in rat striatum
- Design: species or system rat (male Sprague-Dawley)
- measurement context: 100 μmol/kg s.c., 60 min after administration, %-increase from control value
Recorded DOPAC %-increase by entry
State just the number; it will be interpreted in %.

INSERT INTO results (compound, measured_property, test_result) VALUES
  ('Fc1ccc(C2CCNC2)cc1F (stereo not shown)', 'DOPAC %-increase', '−37'),
  ('Fc1cc(F)cc(C2CCNC2)c1 (stereo not shown)', 'DOPAC %-increase', '−19'),
  ('CN1CCC(c2ccc(F)c(F)c2)C1 (stereo not shown)', 'DOPAC %-increase', '−20'),
  ('Clc1ccc(C2CCNC2)cc1Cl (stereo not shown)', 'DOPAC %-increase', '−45');

Please examine the following record next.
Give DOPAC %-increase for the following compound: Fc1ccc(C2CCNC2)c(F)c1 (stereo not shown)
−22
